Each recorded value in this set is attributed to patent US20200231684A1.

target: cynomolgus IL-36R on BaF/3 cells (cynomolgus, UniProt A0A2K5WSK9 20-558); test: cell-based or functional assay
Sequence (A0A2K5WSK9 entry or part of it): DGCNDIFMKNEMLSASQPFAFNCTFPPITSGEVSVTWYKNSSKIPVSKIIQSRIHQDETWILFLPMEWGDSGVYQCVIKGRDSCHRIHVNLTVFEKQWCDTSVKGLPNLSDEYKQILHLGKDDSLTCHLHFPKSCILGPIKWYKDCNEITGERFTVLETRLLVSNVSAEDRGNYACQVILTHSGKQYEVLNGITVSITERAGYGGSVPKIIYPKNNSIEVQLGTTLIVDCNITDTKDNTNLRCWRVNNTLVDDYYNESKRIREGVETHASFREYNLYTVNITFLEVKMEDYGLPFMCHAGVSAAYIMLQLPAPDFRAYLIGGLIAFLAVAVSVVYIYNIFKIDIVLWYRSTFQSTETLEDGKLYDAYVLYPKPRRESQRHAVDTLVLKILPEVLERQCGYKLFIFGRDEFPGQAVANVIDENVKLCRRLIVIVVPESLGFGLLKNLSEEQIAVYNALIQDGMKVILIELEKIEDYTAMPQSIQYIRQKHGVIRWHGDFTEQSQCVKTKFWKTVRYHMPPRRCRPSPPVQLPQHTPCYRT
quantity.kind: IC90, pNFκB, BaF/3 cynomolgus IL-36R cells, trun-IL-36b (nM)
// units = nM; emit number, no label

# binder antibody 78C8 (antibody, V domains shown, Mouse monoclonal from hybridoma; also called 78C8D1; Mouse 78C8) VH: QVQLKESGPVLVAPSQSLSITCTVSGFSLTKFGVHWIRQTPGKGLEWLGVIWAGGPTNYNSALMSRLTISKDISQSQVFLRIDSLQTDDTAMYYCAKQIYYSTLVDYWGQGTSVTVSS VL: DVLLTQTPLSLPVSLGDQASISCRSSQNIVHSNGNTYLQWYLQKPGQSPKLLIYKVSNRFSGVPDRFSGSGSGTDFTLKISRVEAEDLGVYYCFQGSHVPFTFGAGTKLELK ; its IC90, pNFκB, BaF/3 cynomolgus IL-36R cells, trun-IL-36b = 2.1
